Entries annotated with measured T/C
Tested on: BDF1 mice, P388 leukemia ip, median survival T/C
ASSAY EXPLANATION: NCI In Vivo Anticancer Drug Screen. Data for tumor model P388 Leukemia (intraperitoneal) in B6D2F1 (BDF1) mice
CONDITION PARAMETERS: endpoint: median survival time; dose: 100.0 mg/kg/injection; schedule: Q01DX009 (ip); vehicle: Klucel (hydroxypropylcellulose) (HPC); higher = longer survival
Toxic doses and inconclusive results are not listed.

Here's what some known entries look like.
> print(dat)
                                   compound        data.value
1         CC(=O)C(=Cc1c[nH]c2ccccc12)C(C)=O  110 % of control
2  COc1cc2c(c(OC)c1OC)CCC1(C)C(=O)NN=C21 (centres undefined)  108 % of control
3                 Nc1ccc(N=Nc2ccccc2)c(N)c1   91 % of control

Next up:
## Task Item O=[N+]([O-])c1cnc2ccnn2c1 has what recorded T/C?
## Result 95 % of control

---

Entries annotated with measured T/C
Test system: BDF1 mice, P388 leukemia ip, median survival T/C
ASSAY EXPLANATION: NCI In Vivo Anticancer Drug Screen. Data for tumor model P388 Leukemia (intraperitoneal) in B6D2F1 (BDF1) mice
CONDITION PARAMETERS: endpoint: median survival time; dose: 25.0 mg/kg/injection; schedule: Q04DX003 (ip); vehicle: saline with Tween-80; higher = longer survival
Inconclusive results and toxic doses are left out.

Here's what some known entries look like.
> print(dat)
                                   compound        data.value
1  NNc1ncnc2c1ccn2C1OC(CO)C(O)C1O (stereo unspecified)  104 % of control
2           O=NN(CCCl)C(=O)c1cc(Cl)cc(Cl)c1  104 % of control
3    COc1ccc(C(=O)C=C(C(F)(F)F)C(F)(F)F)cc1  100 % of control
4  O=C(NCC(S)c1ccc(Cl)cc1)C(F)(F)F (stereo unspecified)  118 % of control
5  CC(/C=C/C1(C)C(C)CCC(=O)C1C)=C\Cc1c(O)c(Cl)c(C)c(C=O)c1O (stereo unspecified)   90 % of control

Next up:
## Task Item Cc1cc2c(cc1C)C(=O)C(N1CCN(C)CC1)CCC2 (stereo unspecified) has what recorded T/C?
## Result 100 % of control
